B1: Caulobacter ParB omega fusion; a variant is named by its letters at X, in order, B8GW30 (parent)
chain: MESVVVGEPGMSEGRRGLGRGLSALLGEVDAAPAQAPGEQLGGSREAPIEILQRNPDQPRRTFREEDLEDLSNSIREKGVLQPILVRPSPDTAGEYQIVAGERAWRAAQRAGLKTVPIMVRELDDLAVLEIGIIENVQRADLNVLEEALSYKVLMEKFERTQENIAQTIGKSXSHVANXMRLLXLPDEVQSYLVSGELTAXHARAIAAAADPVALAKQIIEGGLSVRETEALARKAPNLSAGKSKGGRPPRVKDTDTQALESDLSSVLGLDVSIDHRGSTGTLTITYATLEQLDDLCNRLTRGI

Variants of: B1
PROCEDURE_TEXT: one-hybrid fitness for binding NBS DNA (the Noc-binding site; scaled: cognate 1, non-cognate 0); higher = stronger binding
EXPERIMENTAL_PARAMETERS: with NBS DNA site
Over roughly 81,000 sequences, “one-hybrid fitness for binding NBS DNA” has its median near -0.1; the highest 2% begin near 0.36. This is one part of a sample in which the highest values are shown more often than they occur.
Reported one-hybrid fitness for binding NBS DNA values follow for various variants

- QQKR: 1.1
- QRGG: 0.367
- LWYM: ≤ 0.2
- DRCR: ≤ 0.2
- TIPT: ≤ 0.2

Ask: Give the measured one-hybrid fitness for binding NBS DNA of `EMMK` .
Reply: 0.405

Ask: Another variant to check: `RAYS`
Reply: 0.423
